The values you see were collected from ChEMBL document CHEMBL3616371.

tested on: Micrococcus luteus; assay: Antibacterial activity against Micrococcus luteus assessed as growth inhibition at 1 mg/well after 24 hrs by Well method; assay type: functional
Listed here: items and their measured inhibition zone (IZ).
assay.endpoint: inhibition zone (IZ) (mm)

structure.as.smiles | assay.endpoint | readout.value
Cc1ccc(C(=O)CCN[C@@H](C)[C@H](O)c2ccccc2)cc1.Cl | inhibition zone (IZ) | 22
C[C@@H](NCCC(=O)c1ccc(Cl)cc1)[C@@H](O)c1ccccc1.Cl | inhibition zone (IZ) | 29
COc1ccc(C(=O)CCN[C@@H](C)[C@H](O)c2ccccc2)cc1.Cl | inhibition zone (IZ) | 23
C[C@H](NCCC(=O)c1ccc(Cl)cc1Cl)[C@H](O)c1ccccc1.Cl | inhibition zone (IZ) | 35
CN[C@@H]1[C@H](O[C@H]2[C@H](O[C@H]3[C@H](O)[C@@H](O)[C@H](N=C(N)N)[C@@H](O)[C@@H]3N=C(N)N)O[C@@H](C)[C@]2(O)C=O)O[C@@H](CO)[C@H](O)[C@H]1O | inhibition zone (IZ) | 26

* * *

Listing of recorded MIC by entry.
tested on: Malassezia pachydermatis; test: Antifungal activity against Malassezia pachydermatis after 48 to 72 hrs by two fold serial dilution method; assay type: functional
assay.endpoint: MIC (µg/mL)

compound | assay.endpoint | units | censoring.sign | readout.value
C[C@@H](NCCC(=O)c1ccc(Cl)cc1)[C@@H](O)c1ccccc1.Cl | MIC | µg/mL | = | 50
C[C@@H](NCCC(=O)c1cccc([N+](=O)[O-])c1)[C@@H](O)c1ccccc1.Cl | MIC | µg/mL | = | 25
C[C@@H](NCCC(=O)c1cccc(O)c1)[C@@H](O)c1ccccc1.Cl | MIC | µg/mL | > | 50
COc1ccc(C(=O)CCN[C@H](C)[C@@H](O)c2ccccc2)cc1.Cl | MIC | µg/mL | > | 50
CC(=O)N1CCN(c2ccc(OCC3COC(Cn4ccnc4)(c4ccc(Cl)cc4Cl)O3)cc2)CC1 (stereo not drawn) | MIC | µg/mL | = | 25
C[C@@H](NCCC(=O)c1ccccc1)[C@@H](O)c1ccccc1.Cl | MIC | µg/mL | = | 50
C[C@H](NCCC(=O)c1ccccc1)[C@H](O)c1ccccc1.Cl | MIC | µg/mL | > | 50
C[C@H](NCCC(=O)c1cccc([N+](=O)[O-])c1)[C@H](O)c1ccccc1.Cl | MIC | µg/mL | > | 50

* * *

test system: Malassezia pachydermatis; assay: Antifungal activity against Malassezia pachydermatis assessed as growth inhibition at 1 mg/well after 48 hrs by Well method; type: functional
Param threshold (20 mm) applies to inhibition zone (IZ); output YES when value >= threshold, NO when value < threshold.

compound | assigned.class
C[C@@H](NCCC(=O)c1ccccc1)[C@@H](O)c1ccccc1.Cl | NO
C[C@H](NCCC(=O)c1cccc([N+](=O)[O-])c1)[C@H](O)c1ccccc1.Cl | NO
C[C@@H](NCCC(=O)c1ccc(Cl)cc1)[C@@H](O)c1ccccc1.Cl | NO
CC(=O)N1CCN(c2ccc(OCC3COC(Cn4ccnc4)(c4ccc(Cl)cc4Cl)O3)cc2)CC1 (stereo not drawn) | YES
C[C@@H](NCCC(=O)c1cccc([N+](=O)[O-])c1)[C@@H](O)c1ccccc1.Cl | YES
C[C@H](NCCC(=O)c1ccc(Cl)cc1)[C@H](O)c1ccccc1.Cl | NO
C[C@H](NCCC(=O)c1ccccc1)[C@H](O)c1ccccc1.Cl | NO
C[C@@H](NCCC(=O)c1cccc(O)c1)[C@@H](O)c1ccccc1.Cl | NO

* * *

Entries and their measured MIC follow.
tested on: Candida albicans; experiment: Antifungal activity against Candida albicans after 48 to 72 hrs by two fold serial dilution method; format: functional
assay.endpoint: MIC

molecule | readout.value
C[C@H](NCCC(=O)c1cccc([N+](=O)[O-])c1)[C@H](O)c1ccccc1.Cl | > 50 µg/mL
C[C@@H](NCCC(=O)c1cccc([N+](=O)[O-])c1)[C@@H](O)c1ccccc1.Cl | 50 µg/mL
C[C@@H](NCCC(=O)c1ccccc1)[C@@H](O)c1ccccc1.Cl | 50 µg/mL
CC(=O)N1CCN(c2ccc(OCC3COC(Cn4ccnc4)(c4ccc(Cl)cc4Cl)O3)cc2)CC1 (stereo unspecified) [KETOCONAZOLE] | 25 µg/mL
C[C@H](NCCC(=O)c1ccccc1)[C@H](O)c1ccccc1.Cl | 50 µg/mL
C[C@@H](NCCC(=O)c1ccc(Cl)cc1)[C@@H](O)c1ccccc1.Cl | 12.5 µg/mL

* * *

Reported inhibition zone (IZ) by item:
test system: Staphylococcus aureus; experiment: Antibacterial activity against Staphylococcus aureus assessed as growth inhibition at 1 mg/well after 24 hrs by Well method; type: functional

structure.as.smiles | units | inhibition zone (IZ)
CN[C@@H]1[C@H](O[C@H]2[C@H](O[C@H]3[C@H](O)[C@@H](O)[C@H](N=C(N)N)[C@@H](O)[C@@H]3N=C(N)N)O[C@@H](C)[C@]2(O)C=O)O[C@@H](CO)[C@H](O)[C@H]1O | mm | 14
C[C@@H](NCCC(=O)c1ccc(Cl)cc1)[C@@H](O)c1ccccc1.Cl | mm | 36
C[C@@H](NCCC(=O)c1ccc(Cl)cc1Cl)[C@@H](O)c1ccccc1.Cl | mm | 37
Cc1ccc(C(=O)CCN[C@H](C)[C@@H](O)c2ccccc2)cc1.Cl | mm | 24
C[C@@H](NCCC(=O)c1ccccc1)[C@@H](O)c1ccccc1.Cl | mm | 22
COc1ccc(C(=O)CCN[C@@H](C)[C@H](O)c2ccccc2)cc1.Cl | mm | 18
C[C@H](NCCC(=O)c1cccc(O)c1)[C@H](O)c1ccccc1.Cl | mm | 24
COc1ccc(C(=O)CCN[C@H](C)[C@@H](O)c2ccccc2)cc1.Cl | mm | 20
C[C@@H](NCCC(=O)c1cccc([N+](=O)[O-])c1)[C@@H](O)c1ccccc1.Cl | mm | 14

* * *

Listed here are compounds together with their documented inhibition zone (IZ).
system: Pseudomonas aeruginosa; test: Antibacterial activity against Pseudomonas aeruginosa assessed as growth inhibition at 1 mg/well after 24 hrs by Well method; type: functional

structure.as.smiles | inhibition zone (IZ) [mm]
C[C@@H](NCCC(=O)c1ccc(Cl)cc1Cl)[C@@H](O)c1ccccc1.Cl | 24
CN[C@@H]1[C@H](O[C@H]2[C@H](O[C@H]3[C@H](O)[C@@H](O)[C@H](N=C(N)N)[C@@H](O)[C@@H]3N=C(N)N)O[C@@H](C)[C@]2(O)C=O)O[C@@H](CO)[C@H](O)[C@H]1O | 30
C[C@@H](NCCC(=O)c1cccc([N+](=O)[O-])c1)[C@@H](O)c1ccccc1.Cl | 17
COc1ccc(C(=O)CCN[C@H](C)[C@@H](O)c2ccccc2)cc1.Cl | 18
COc1ccc(C(=O)CCN[C@@H](C)[C@H](O)c2ccccc2)cc1.Cl | 20
C[C@H](NCCC(=O)c1ccc(Cl)cc1Cl)[C@H](O)c1ccccc1.Cl | 29
C[C@H](NCCC(=O)c1cccc([N+](=O)[O-])c1)[C@H](O)c1ccccc1.Cl | 16
Cc1ccc(C(=O)CCN[C@H](C)[C@@H](O)c2ccccc2)cc1.Cl | 23

* * *

Listing: MIC of selected molecules
system: Klebsiella aerogenes; assay: Antibacterial activity against Enterobacter aerogenes after 24 hrs by two fold serial dilution method; assay type: functional
assay.endpoint: MIC

structure.as.smiles | measurement.target | readout.value
C[C@@H](NCCC(=O)c1ccc(Cl)cc1Cl)[C@@H](O)c1ccccc1.Cl | Klebsiella aerogenes | 3.13 µg/mL
C[C@@H](NCCC(=O)c1cccc(O)c1)[C@@H](O)c1ccccc1.Cl | Klebsiella aerogenes | 25 µg/mL
COc1ccc(C(=O)CCN[C@@H](C)[C@H](O)c2ccccc2)cc1.Cl | Klebsiella aerogenes | 50 µg/mL
C[C@H](NCCC(=O)c1cccc([N+](=O)[O-])c1)[C@H](O)c1ccccc1.Cl | Klebsiella aerogenes | 50 µg/mL
C[C@H](NCCC(=O)c1ccccc1)[C@H](O)c1ccccc1.Cl | Klebsiella aerogenes | 6.25 µg/mL

* * *

system: Klebsiella aerogenes; test: Antibacterial activity against Enterobacter aerogenes after 24 hrs by two fold serial dilution method; assay type: functional
Property: MIC; scope: individual molecules

molecule | measurement.target | MIC, µg/mL
COc1ccc(C(=O)CCN[C@H](C)[C@@H](O)c2ccccc2)cc1.Cl | Klebsiella aerogenes | 12.5
C[C@H](NCCC(=O)c1cccc(O)c1)[C@H](O)c1ccccc1.Cl | Klebsiella aerogenes | 25
C[C@@H](NCCC(=O)c1ccc(Cl)cc1)[C@@H](O)c1ccccc1.Cl | Klebsiella aerogenes | 3.13
Cc1ccc(C(=O)CCN[C@@H](C)[C@H](O)c2ccccc2)cc1.Cl | Klebsiella aerogenes | 3.13
CN[C@@H]1[C@H](O[C@H]2[C@H](O[C@H]3[C@H](O)[C@@H](O)[C@H](N=C(N)N)[C@@H](O)[C@@H]3N=C(N)N)O[C@@H](C)[C@]2(O)C=O)O[C@@H](CO)[C@H](O)[C@H]1O [STREPTOMYCIN] | Klebsiella aerogenes | 25
C[C@H](NCCC(=O)c1ccc(Cl)cc1)[C@H](O)c1ccccc1.Cl | Klebsiella aerogenes | 50
C[C@@H](NCCC(=O)c1cccc([N+](=O)[O-])c1)[C@@H](O)c1ccccc1.Cl | Klebsiella aerogenes | 50
C[C@@H](NCCC(=O)c1ccccc1)[C@@H](O)c1ccccc1.Cl | Klebsiella aerogenes | 50
Cc1ccc(C(=O)CCN[C@H](C)[C@@H](O)c2ccccc2)cc1.Cl | Klebsiella aerogenes | 12.5
C[C@H](NCCC(=O)c1ccc(Cl)cc1Cl)[C@H](O)c1ccccc1.Cl | Klebsiella aerogenes | 25
